target: T1, human glucagon receptor (human, UniProt P47871 26-477); test: SPA competition vs [125I]-Gcg, hGcgR membranes
T1 construct: whole, on cells; also called hGCGR; hGcgR
T1 sequence (P47871 26-477): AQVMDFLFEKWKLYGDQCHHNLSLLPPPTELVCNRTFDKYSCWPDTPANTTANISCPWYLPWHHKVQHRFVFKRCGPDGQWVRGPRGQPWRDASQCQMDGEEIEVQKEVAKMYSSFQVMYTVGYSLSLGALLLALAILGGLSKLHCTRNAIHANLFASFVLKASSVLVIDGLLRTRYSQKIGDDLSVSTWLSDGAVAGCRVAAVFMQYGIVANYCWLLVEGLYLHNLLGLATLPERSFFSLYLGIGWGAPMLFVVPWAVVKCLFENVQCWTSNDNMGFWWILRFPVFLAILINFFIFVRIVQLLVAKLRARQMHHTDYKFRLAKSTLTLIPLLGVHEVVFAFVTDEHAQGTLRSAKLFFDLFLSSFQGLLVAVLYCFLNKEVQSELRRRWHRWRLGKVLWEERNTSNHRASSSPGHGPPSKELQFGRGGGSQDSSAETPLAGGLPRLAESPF
*1 amine or outer side, *2 acyl side, *3 side chain or, on linkers, in order; H or OH if unused. Where no end group is shown, it is not given here. Side-chain parts run from the residue outwards. [ ]: non-standard residue; d: D form. The star is where a group is joined. Decanoyl(10-(4-HOOC-PhO)) = O=C(O)c1ccc(OCCCCCCCCCC(=O)*)cc1; αMePhe(2-F) = C[C@](N)(Cc1ccccc1F)C(=O)O; γGlu = O=C(O)[C@H](CCC(=O)[*:2])N[*:1]; αMeY = C[C@](N)(Cc1ccc(O)cc1)C(=O)O; αMeL = CC(C)C[C@](C)(N)C(=O)O; Orn = NCCC[C@H](N)C(=O)O; AEEA = NCCOCCOCC(=O)O; Aib = CC(C)(N)C(=O)O
For each record, check the reported Ki: if it is below 100 nM write satisfied, else write not satisfied.

Worked examples, 2 binders total:
YXEGTXTSDKXIXLDXKAQXEFIXXLIEGGPSSGAPPPS (Aib2, αMeF(2F)6, K10(Z1), Aib11, αMeL13, Orn16, K17(Z1), Aib20, D-Glu24, αMeY25, C-term NH2; Z1=AEEA3-(γ-Glu)-CO-(CH2)10-CH3); not satisfied
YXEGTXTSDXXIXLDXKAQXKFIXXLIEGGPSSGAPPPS (Aib2, αMeF(2F)6, 4Pal10, Aib11, αMeL13, Orn16, K17(Z1), Aib20, K21(Z1), D-Glu24, αMeY25, C-term NH2; Z1=AEEA2-(γ-Glu)-CO-(CH2)10-CH3); satisfied

[Q] Below 100 nM on Ki? Entry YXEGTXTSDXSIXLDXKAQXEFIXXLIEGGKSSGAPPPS (Aib2, αMeF(2F)6, 4Pal10, αMeL13, Orn16, K17(Z1), Aib20, D-Glu24, αMeY25, K31(Z1), C-term NH2; Z1=AEEA2-(εK)-CO-(CH2)12-CO2H)
[A] not satisfied

[Q] Below 100 nM on Ki? Entry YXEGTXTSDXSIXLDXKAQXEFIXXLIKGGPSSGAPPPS (Aib2, αMeF(2F)6, 4Pal10, αMeL13, Orn16, K17(Z1), Aib20, D-Glu24, αMeY25, K28(Z1), C-term NH2; Z1=AEEA2-(γ-Glu)-CO-(CH2)14-CH3)
[A] satisfied

[Q] Below 100 nM on Ki? Entry YXEGTXTSDXXIXLDXQAQXEFIKXLIKGGPSSGAPPPS (Aib2, αMeF(2F)6, 4Pal10, Aib11, αMeL13, Orn16, Aib20, K24(Z1), αMeY25, K28(Z1), C-term NH2; Z1=AEEA2-(γ-Glu)-(10-(4-carboxyphenoxy)decanoyl))
[A] not satisfied

[Q] Below 100 nM on Ki? Entry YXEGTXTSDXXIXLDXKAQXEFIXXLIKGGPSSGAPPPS (Aib2, αMeF(2F)6, 4Pal10, Aib11, αMeL13, Orn16, K17(Z1), Aib20, D-Glu24, αMeY25, K28(Z1), C-term NH2; Z1=AEEA-Aoc-CO-(CH2)12-CO2H)
[A] not satisfied

[Q] Below 100 nM on Ki? Entry YXEGTXTSDXSIXLDXKAQXEFIXXLIEGKPSSGAPPPS (Aib2, αMeF(2F)6, 4Pal10, αMeL13, Orn16, K17(Z1), Aib20, D-Glu24, αMeY25, K30(Z1), C-term NH2; Z1=AEEA2-(γ-Glu)-CO-(CH2)14-CH3)
[A] satisfied

[Q] Below 100 nM on Ki? Entry Y[Aib]EGT[αMePhe(2-F)]TSDV[Aib]I[αMeL]LD[Orn]QAQ[Aib]EFIK([AEEA-AEEA-γGlu-Decanoyl(10-(4-HOOC-PhO))])[αMeY]LIK([AEEA-AEEA-γGlu-Decanoyl(10-(4-HOOC-PhO))])GGPSSGAPPPS-NH2 [Y-Aib-EGT-αMeF(2F)-TSDV-Aib-I-αMeL-LD-Orn …]
[A] not satisfied

[Q] Below 100 nM on Ki? Entry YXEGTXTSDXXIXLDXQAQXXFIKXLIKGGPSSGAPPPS (Aib2, αMeF(2F)6, 4Pal10, Aib11, αMeL13, Orn16, Aib20, Orn21, K24(Z1), αMeY25, K28(Z1), C-term NH2; Z1=AEEA2-(γ-Glu)-CO-(CH2)12-CO2H)
[A] not satisfied

[Q] Below 100 nM on Ki? Entry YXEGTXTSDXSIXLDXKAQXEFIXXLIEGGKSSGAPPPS (Aib2, αMeF(2F)6, 4Pal10, αMeL13, Orn16, K17(Z1), Aib20, D-Glu24, αMeY25, K31(Z1), C-term NH2; Z1=AEEA2-(γ-Glu)-(4-(4-tert-butylphenyl)butanoyl))
[A] not satisfied

[Q] Below 100 nM on Ki? Entry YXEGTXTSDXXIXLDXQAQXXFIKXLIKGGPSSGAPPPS (Aib2, αMeF(2F)6, 4Pal10, Aib11, αMeL13, Orn16, Aib20, Orn21, K24(Z1), αMeY25, K28(Z1), C-term NH2; Z1=AEEA3-(γ-Glu)-(10-(4-carboxyphenoxy)decanoyl))
[A] not satisfied

[Q] Below 100 nM on Ki? Entry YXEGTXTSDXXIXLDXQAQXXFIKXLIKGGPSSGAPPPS (Aib2, αMeF(2F)6, 4Pal10, Aib11, αMeL13, Orn16, Aib20, Orn21, K24(Z1), αMeY25, K28(Z1), C-term NH2; Z1=PEG6-(γ-Glu)-CO-(CH2)12-CO2H)
[A] not satisfied

[Q] Below 100 nM on Ki? Entry YXEGTXTSDYXIXLDXQAQXXFIKXLIKGGPSSGAPPPS (Aib2, αMeF(2F)6, Aib11, αMeL13, Orn16, Aib20, Orn21, K24(Z1), αMeY25, K28(Z1), C-term NH2; Z1=AEEA2-(γ-Glu)-C10_4CP (so in the source))
[A] satisfied
